Target: FAAH (Homo sapiens, UniProt O00519)
Test: Assay Method 1: FAAH assay, 3H-anandamide hydrolysis in cell homogenate
Entries and their measured IC50 follow.
The figure you give is taken to be in nM; do not add the unit.

O=C(Nc1cnc2cc[nH]c2c1)N1CCN(Cc2ccc3c(c2)OC(F)(F)O3)CC1 [Example 45] ... 230
O=C(Nc1noc2ncccc12)N1CCN(Cc2cccc(Oc3ccc(OC(F)(F)F)cc3)c2)CC1 [Example 37] ... 200

Now for the compound whose IC50 we want.
The value of IC50 measured for the compound O=C(Nc1noc2ncccc12)N1CCN(Cc2ccc3ccccc3c2)CC1 [Example 29] turned out to be 370

###

Biological target: FAAH (Homo sapiens, UniProt O00519)
Assay: Assay Method 1: FAAH assay, 3H-anandamide hydrolysis in cell homogenate
Classify: T when IC50 is strictly less than 0.5 µM; F when IC50 is not.

O=C(Nc1noc2ncccc12)N1CCN(Cc2cccc(Oc3ccc(F)c(C(F)(F)F)c3)c2)CC1 [Example 14] ... T
O=C(Nc1noc2ncccc12)N1CCN(Cc2cccc(Oc3ccc(F)c(F)c3)c2)CC1 [Example 26] ... F
O=C(Nc1ccc2ncoc2c1)N1CCN(Cc2cccc(Oc3ccc(Cl)cc3)c2)CC1 [Example 46] ... T
O=C(Nc1cccn2ccnc12)N1CCN(Cc2ccc3c(c2)OC(F)(F)O3)CC1 [Example 54] ... F
O=C(Nc1nc2ccccc2o1)N1CCN(Cc2ccc3c(c2)OC(F)(F)O3)CC1 [Example 68] ... F

Is IC50 strictly under 0.5 µM for the entry O=C(Nc1nc2ccccc2o1)N1CCN(Cc2ccc(OC(F)(F)F)c(Cl)c2)CC1 [Example 67] ?
F

Could you please tell me whether IC50 recorded for O=C(Nc1cnc2cccnn12)N1CCC(Cc2ccc(Cl)c(Cl)c2)CC1 [Example 83] is less than 0.5 µM?
T

Given the entry O=C(Nc1cccc2nccn12)N1CCN(Cc2ccc(OC(F)(F)F)c(Cl)c2)CC1 [Example 70] , would its reported IC50 be below 0.5 µM?
T

###

Target: Rat FAAH (Rattus norvegicus)
Test: Assay Method 2: FAAH assay, 3H-anandamide hydrolysis in cell homogenate
Details: average of results obtained, > value = solubility limit or highest concentration tested
Measured metric: pIC50
Would you please state pIC50, meaning minus log10 of the concentration in mol/L, as a bare number?

Use the examples below as a reference point.
O=C(Nc1noc2ncccc12)N1CCN(Cc2cccc(Oc3ccc(OCC(F)(F)F)cc3)c2)CC1 ... 6.70
O=C(Nc1ccnc2nccn12)N1CCN(Cc2cccc(Oc3ccc(Cl)cc3)c2)CC1 ... 7.51
O=C(Nc1noc2ncccc12)N1CCN(Cc2cccc(Oc3ccc(SC(F)(F)F)cc3)c2)CC1 ... 6.74
Cc1nc2cc(NC(=O)N3CCN(Cc4cccc(Oc5ccc(Cl)cc5)c4)CC3)ccc2o1 ... 6.92
O=C(Nc1noc2ncccc12)N1CCN(Cc2cccc(Oc3ccc(F)c(C(F)(F)F)c3)c2)CC1 ... 5.40
O=C(Nc1nocc1Cl)N1CCN(Cc2ccc3c(c2)OC(F)(F)O3)CC1 ... 6.55

Now consider the entry below.
Per the records, this molecule ( O=C(Nc1ccn2ccnc2c1)N1CCN(Cc2cccc(Oc3ccc(Cl)cc3)c2)CC1 ) has pIC50 equal to 6.18

###

Parameter IC50: see the listing below.
Target: UniProtKB P97612
Sequence (P97612 1-579): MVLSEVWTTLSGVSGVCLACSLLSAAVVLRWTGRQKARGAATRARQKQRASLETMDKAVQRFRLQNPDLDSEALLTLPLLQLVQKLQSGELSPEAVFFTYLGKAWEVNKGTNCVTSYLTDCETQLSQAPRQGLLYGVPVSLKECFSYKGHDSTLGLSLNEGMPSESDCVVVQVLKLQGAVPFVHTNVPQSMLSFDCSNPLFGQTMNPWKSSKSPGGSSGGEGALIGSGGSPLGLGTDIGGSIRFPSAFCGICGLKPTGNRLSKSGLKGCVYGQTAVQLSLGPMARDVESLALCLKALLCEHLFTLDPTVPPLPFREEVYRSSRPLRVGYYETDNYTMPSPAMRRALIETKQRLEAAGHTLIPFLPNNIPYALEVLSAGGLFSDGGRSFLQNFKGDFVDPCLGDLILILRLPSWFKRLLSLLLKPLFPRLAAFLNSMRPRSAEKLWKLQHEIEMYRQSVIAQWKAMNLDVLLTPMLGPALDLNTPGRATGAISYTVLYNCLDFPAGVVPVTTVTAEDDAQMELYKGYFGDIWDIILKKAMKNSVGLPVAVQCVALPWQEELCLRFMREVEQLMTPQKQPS
Experiment: Assay Method 2: FAAH assay, 3H-anandamide hydrolysis in cell homogenate
Settings: average of results obtained, > value = solubility limit or highest concentration tested
Numbers only; they are read as nM.

O=C(Nc1cnc2cccnn12)N1CCN(Cc2ccc(Cl)c(Cl)c2)CC1 [Example 2] ... 110
O=C(Nc1noc2cccnc12)N1CCN(Cc2ccc(Cl)c(Cl)c2)CC1 [Example 43] ... 112
O=C(Nc1noc2ncccc12)N1CCN(Cc2cccc(Oc3ccc(C(F)(F)F)cc3)c2)CC1 [Example 30] ... 430

// IC50 lookup, molecule = O=C(Nc1noc2ncccc12)N1CCN(Cc2ccc3c(c2)OC(F)(F)O3)CC1 [Example 5] , result: 8000

Recorded result, N#Cc1ccc(Oc2cccc(CN3CCN(C(=O)Nc4cnc5[nH]ccc5c4)CC3)c2)nc1 [Example 79] , IC50: 270

Noted for O=C(Nc1noc2cccnc12)N1CCN(Cc2ccc3c(c2)OC(F)(F)O3)CC1 [Example 42] : its IC50 reads 220

###

Molecular target: Rat FAAH (Rattus norvegicus)
Assay: Assay Method 2: FAAH assay, 3H-anandamide hydrolysis in cell homogenate
Conditions: average of results obtained, > value = solubility limit or highest concentration tested
For each record, check the reported IC50: if it is below 800 nM write criterion met, else write criterion not met.

O=C(Nc1cnc2ccccn12)N1CCN(Cc2ccc3c(c2)OC(F)(F)O3)CC1 ... criterion not met
O=C(Nc1nocc1Cl)N1CCN(Cc2cccc(Oc3ccc(Cl)cc3)c2)CC1 ... criterion met
O=C(Nc1ccc2nccn2c1)N1CCN(Cc2ccc3c(c2)OC(F)(F)O3)CC1 ... criterion not met
O=C(Nc1cnc2cc[nH]c2c1)N1CCN(Cc2ccc3c(c2)OC(F)(F)O3)CC1 ... criterion met
O=C(NC1=NS(=O)(=O)c2ccccc21)N1CCN(Cc2cccc(Oc3ccc(Cl)cc3)c2)CC1 ... criterion not met
O=C(Nc1cnc2cccnn12)N1CCN(Cc2cccc(Oc3ccc(Cl)cc3)c2)CC1 ... criterion met

Given the entry O=C(Nc1noc2ncccc12)N1CCN(Cc2cnc3ccccc3c2)CC1 , would its reported IC50 be below 800 nM?
criterion not met

###

Catalogue of compounds with associated IC50
Target: Rat FAAH (Rattus norvegicus)
Sequence (P97612 1-579): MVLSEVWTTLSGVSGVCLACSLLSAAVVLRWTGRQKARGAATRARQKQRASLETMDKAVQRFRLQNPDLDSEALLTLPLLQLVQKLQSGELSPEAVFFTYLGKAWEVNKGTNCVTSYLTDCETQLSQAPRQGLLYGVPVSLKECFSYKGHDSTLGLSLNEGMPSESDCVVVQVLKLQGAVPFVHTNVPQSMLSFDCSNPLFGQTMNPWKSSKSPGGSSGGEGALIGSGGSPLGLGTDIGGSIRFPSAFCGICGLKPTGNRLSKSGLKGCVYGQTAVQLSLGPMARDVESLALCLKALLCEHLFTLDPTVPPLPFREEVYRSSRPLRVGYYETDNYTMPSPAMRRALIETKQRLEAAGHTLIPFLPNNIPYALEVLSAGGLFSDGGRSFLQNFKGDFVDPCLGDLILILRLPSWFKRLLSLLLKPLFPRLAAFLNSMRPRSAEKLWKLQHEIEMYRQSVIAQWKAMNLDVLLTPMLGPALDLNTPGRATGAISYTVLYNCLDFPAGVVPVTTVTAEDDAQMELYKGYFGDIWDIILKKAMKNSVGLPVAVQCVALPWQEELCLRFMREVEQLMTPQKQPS
Experiment: Assay Method 2: FAAH assay, 3H-anandamide hydrolysis in cell homogenate
Details: average of results obtained, > value = solubility limit or highest concentration tested

O=C(Nc1noc2ncccc12)N1CCN(Cc2ccc(Br)c(F)c2)CC1 ... > 10 µM

Field IC50 (entry O=C(Nc1cn2ccccc2n1)N1CCN(Cc2cccc(Oc3ccc(Cl)cc3)c2)CC1 ) reads > 10 µM

Item: O=C(Nc1noc2ncccc12)N1CCN(Cc2cccc(Oc3ccccc3)c2)CC1 | IC50: > 10 µM

The compound listed as O=C(Nc1noc2ncccc12)N1CCN(Cc2ccc3ccccc3n2)CC1 has a reported IC50 of > 10 µM

The reported value for O=C(Nc1nc2ccccc2o1)N1CCN(Cc2ccc(OC(F)(F)F)c(Cl)c2)CC1 in terms of IC50 is > 10 µM

###

Target: FAAH (Homo sapiens, UniProt O00519)
Sequence (O00519 1-579): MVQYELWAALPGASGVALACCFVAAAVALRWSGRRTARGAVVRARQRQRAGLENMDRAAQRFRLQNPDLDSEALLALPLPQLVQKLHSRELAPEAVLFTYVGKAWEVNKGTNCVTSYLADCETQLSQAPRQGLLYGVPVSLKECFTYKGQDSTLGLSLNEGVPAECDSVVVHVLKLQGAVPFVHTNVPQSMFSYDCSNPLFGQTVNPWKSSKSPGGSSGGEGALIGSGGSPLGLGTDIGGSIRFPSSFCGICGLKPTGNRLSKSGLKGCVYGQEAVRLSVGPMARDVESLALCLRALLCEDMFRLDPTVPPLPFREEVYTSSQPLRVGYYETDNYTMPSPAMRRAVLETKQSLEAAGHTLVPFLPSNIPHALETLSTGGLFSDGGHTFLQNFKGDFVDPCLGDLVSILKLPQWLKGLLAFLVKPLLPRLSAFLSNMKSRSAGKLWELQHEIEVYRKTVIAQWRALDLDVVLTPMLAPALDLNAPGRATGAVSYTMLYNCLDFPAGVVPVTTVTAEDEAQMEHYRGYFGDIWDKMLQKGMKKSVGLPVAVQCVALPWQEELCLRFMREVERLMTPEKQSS
Assay: Assay Method 1: FAAH assay, 3H-anandamide hydrolysis in cell homogenate
pIC50: −log10 of the molar value.
Listed here: items and their measured pIC50.

Consider the following illustrative entries.
O=C(Nc1noc2ncccc12)N1CCN(Cc2ccc3cc[nH]c3c2)CC1 ... < 5.00
O=C(Nc1cn2ccccc2n1)N1CCN(Cc2cccc(Oc3ccc(Cl)cc3)c2)CC1 ... < 5.00
O=C(Nc1noc2ncccc12)N1CCN(Cc2cccc(Oc3ccc4c(c3)OC(F)(F)O4)c2)CC1 ... < 7.22

Kindly note the recorded pIC50 for O=C(Nc1ccc2nccn2c1)N1CCN(Cc2ccc3c(c2)OC(F)(F)O3)CC1 , which is < 5.00

Given item N#Cc1ccc(Oc2cccc(CN3CCN(C(=O)Nc4noc5ncccc45)CC3)c2)cc1C(F)(F)F , the value recorded as its pIC50 is < 5.00

get_value(item= O=C(Nc1noc2ncccc12)N1CCN(Cc2ccc3c(c2)OCO3)CC1 , readout=pIC50) returns < 5.00

Cited source: patent US8877769B2
